# target_or_test_system: Yer064c (UniProt P40041)
# Sequence: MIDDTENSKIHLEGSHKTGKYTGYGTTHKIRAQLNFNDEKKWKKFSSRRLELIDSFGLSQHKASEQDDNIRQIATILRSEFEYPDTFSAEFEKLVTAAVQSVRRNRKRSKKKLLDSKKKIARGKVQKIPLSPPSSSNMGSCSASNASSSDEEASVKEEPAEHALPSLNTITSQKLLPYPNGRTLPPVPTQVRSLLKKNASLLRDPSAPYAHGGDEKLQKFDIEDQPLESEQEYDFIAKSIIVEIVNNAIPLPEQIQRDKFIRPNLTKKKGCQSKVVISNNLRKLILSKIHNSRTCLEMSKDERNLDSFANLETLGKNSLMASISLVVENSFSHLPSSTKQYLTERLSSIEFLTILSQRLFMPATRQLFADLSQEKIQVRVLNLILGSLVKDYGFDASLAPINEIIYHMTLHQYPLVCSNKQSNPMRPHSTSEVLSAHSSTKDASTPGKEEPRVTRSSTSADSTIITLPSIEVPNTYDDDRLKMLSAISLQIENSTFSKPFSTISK
# assay_method_text: PBM E-score (8-mer binding enrichment) (E-score (-0.5 to 0.5)); higher = stronger / more preferred TF binding
# measurement_setup: protein concentration: 200 nM; construct: GST-full length
The full ranking holds about 33,000 sequences; the median of “E-score (-0.5 to 0.5)” is about -0.036, and the highest 2% start at about 0.37. This is one part of a sample in which the highest values are shown more often than they occur.
Measured PBM E-score, listed per entry.
Kindly provide the number alone.

Lab note: measured PBM E-score of "ATATAGTA" was 0.128

Lab note: measured PBM E-score of "CTCACGCC" was 0.172

Lab note: measured PBM E-score of "ATATAGTG" was 0.0402

Lab note: measured PBM E-score of "CGGAGTTA" was -0.0037
